Assay: folding enthalpy; higher = less favourable; fluorescence melt of hairpins on a sequencing array, two-state fit
Conditions: sodium 0.088 M
Give measured folding enthalpy for each item. Keep answers brief.
Write the numeric value and append its unit.

Exercise: Which folding enthalpy is reported for this sequence? GCGTCCGAAAGGACTCGC ((((((....)))..)))
Solution: -12.3 kcal/mol

Exercise: Can you check GATCCTCTATAGGATC ((((((....)))))) next?
Solution: -40.8 kcal/mol

Exercise: Can you check GAATCCCGAAAGGGTTTC (((.(((....))).))) next?
Solution: -23.6 kcal/mol

Exercise: Can you check GTAGTCGAAAGACGGTAC ((((((....)))..))) next?
Solution: -11.8 kcal/mol

Exercise: Can you check CCCGAGAAATCGGG (((((....))))) next?
Solution: -19.6 kcal/mol

Exercise: Can you check GTAAGAGGAAACTCTTAC (((((((....))))))) next?
Solution: -42.2 kcal/mol
